Entries with reported IC50 on 4-aminobutyrate aminotransferase, mitochondrial (Rattus norvegicus, UniProt P50554)
Sequence (P50554 whole entry): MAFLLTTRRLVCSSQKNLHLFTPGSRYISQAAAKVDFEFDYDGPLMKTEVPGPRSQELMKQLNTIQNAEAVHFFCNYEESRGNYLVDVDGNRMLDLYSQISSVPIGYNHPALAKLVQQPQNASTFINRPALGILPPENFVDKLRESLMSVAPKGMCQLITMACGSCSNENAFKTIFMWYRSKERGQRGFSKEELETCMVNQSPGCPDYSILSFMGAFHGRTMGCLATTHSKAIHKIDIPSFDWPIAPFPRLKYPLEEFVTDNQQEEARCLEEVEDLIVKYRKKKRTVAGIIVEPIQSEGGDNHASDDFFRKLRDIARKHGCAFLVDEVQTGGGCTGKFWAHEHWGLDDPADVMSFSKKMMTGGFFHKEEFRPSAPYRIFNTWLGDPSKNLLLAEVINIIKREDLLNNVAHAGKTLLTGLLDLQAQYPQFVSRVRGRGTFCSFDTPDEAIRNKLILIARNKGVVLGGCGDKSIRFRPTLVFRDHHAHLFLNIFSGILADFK
Note: unit nM is implicit; provide only the numeric part.

Solved entries:
C/C(=N/NC(=O)c1cccc(N)c1)c1cccc(Cl)c1 : 320
CC1CCCC/C1=N\CCCC(=O)O (stereo not drawn) : 20800
C/C(=N\CCCC(=O)O)c1ccc2ccccc2c1 : 44100
NCCCC(=O)N/N=C/c1cccc(I)c1 : 150

Using the record for CC12CCC(C1)C(C)(C)/C2=N\CCCC(=O)O (stereo not drawn) , report its IC50.
10000

###

target: 4-aminobutyrate aminotransferase, mitochondrial (Rattus norvegicus)
Overview of recorded pIC50 for various compounds
The quantity pIC50 is defined as the negative base-10 logarithm of the molar concentration.

Solved entries:
NCCCC(=O)N/N=C1\CCCc2ccccc21 : 6.55
Nc1cccc(C(=O)N/N=C2/c3ccccc3C(=O)c3ccc(Cl)cc32)c1 : 6.34
NCCCC(=O)N/N=C(/C(=O)c1ccccc1)c1ccccc1 : 6.52

Using the record for "NCCCC(=O)N/N=C(\c1ccccc1)c1ccc(Br)cc1" , report its pIC50.
6.25

Ok, now "Cc1ccc2c(c1)/C(=N\NC(=O)CCCN)c1ccccc1C2=O"
6.96
